B1: HDV Ribozyme (parent)
chain: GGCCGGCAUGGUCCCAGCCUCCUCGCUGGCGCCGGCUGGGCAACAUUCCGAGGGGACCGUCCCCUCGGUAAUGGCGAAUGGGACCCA

Variants of: B1
Test: self-cleavage, relative activity (ratio to wild type); higher = more cleavage; co-transcriptional

{"sequence-change": "G50A G55U", "self-cleavage": 1.11}
{"sequence-change": "G50C U69G", "self-cleavage": 1.05}
{"sequence-change": "A51U G74A", "self-cleavage": 0.288}
{"sequence-change": "G31C G53C", "self-cleavage": 0.332}
{"sequence-change": "G35C G40U", "self-cleavage": 0.145}
{"sequence-change": "C26U U65G", "self-cleavage": 1.02}
{"sequence-change": "C64G C66A", "self-cleavage": 0.888}
{"sequence-change": "G59A C64U", "self-cleavage": 0.903}
{"sequence-change": "A78U", "self-cleavage": 0.316}
{"sequence-change": "G50C U69A", "self-cleavage": 0.831}
{"sequence-change": "G25U G29U", "self-cleavage": 0.12}
{"sequence-change": "G2A U37A", "self-cleavage": 0.0755}
{"sequence-change": "A8G U47G", "self-cleavage": 0.782}
{"sequence-change": "C64G A78G", "self-cleavage": 0.527}
{"sequence-change": "C57G C85U", "self-cleavage": 0.849}
{"sequence-change": "A51G A77U", "self-cleavage": 0.682}
{"sequence-change": "G67A G68C", "self-cleavage": 0.707}
{"sequence-change": "U69A A70C", "self-cleavage": 0.745}
{"sequence-change": "A43G A56U", "self-cleavage": 0.688}
{"sequence-change": "C14U C66U", "self-cleavage": 1.25}
{"sequence-change": "C18U A51C", "self-cleavage": 0.901}
{"sequence-change": "G74A C84A", "self-cleavage": 0.389}
{"sequence-change": "C15G C64U", "self-cleavage": 1.02}
{"sequence-change": "C33A A83U", "self-cleavage": 0.217}
{"sequence-change": "G34A A77U", "self-cleavage": 0.0339}
{"sequence-change": "G50U G74C", "self-cleavage": 0.214}
{"sequence-change": "C22U U23C", "self-cleavage": 0.68}
{"sequence-change": "G73C G80C", "self-cleavage": 0.109}
{"sequence-change": "U69G G80C", "self-cleavage": 0.219}
{"sequence-change": "G82A A83C", "self-cleavage": 0.451}
{"sequence-change": "G1U C7G", "self-cleavage": 0.332}
{"sequence-change": "G29C A56U", "self-cleavage": 0.0755}
{"sequence-change": "C7A G11U", "self-cleavage": 0.095}
{"sequence-change": "C61G G80C", "self-cleavage": 0.348}
{"sequence-change": "A16U A70G", "self-cleavage": 0.855}
{"sequence-change": "U47A U79A", "self-cleavage": 0.598}
{"sequence-change": "C14A G40C", "self-cleavage": 0.185}
{"sequence-change": "G11C G80C", "self-cleavage": 0.295}
{"sequence-change": "C3A C84U", "self-cleavage": 0.157}
{"sequence-change": "C22A C49U", "self-cleavage": 0.338}
{"sequence-change": "U47C G68U", "self-cleavage": 0.462}
{"sequence-change": "G1U C61A", "self-cleavage": 0.326}
{"sequence-change": "G29A G73U", "self-cleavage": 0.112}
{"sequence-change": "G67C C85U", "self-cleavage": 0.92}
{"sequence-change": "C4G A78U", "self-cleavage": 0.116}
{"sequence-change": "G11U G34U", "self-cleavage": 0.0252}
{"sequence-change": "U12C C36U", "self-cleavage": 0.107}
{"sequence-change": "C58G C64U", "self-cleavage": 1.08}
{"sequence-change": "G76U G82U", "self-cleavage": 0.483}
{"sequence-change": "C22G U27G", "self-cleavage": 0.0978}
{"sequence-change": "U9C U79C", "self-cleavage": 0.499}
{"sequence-change": "C7U C32U", "self-cleavage": 0.394}
{"sequence-change": "G59A G74C", "self-cleavage": 0.198}
{"sequence-change": "G28C C58G", "self-cleavage": 0.0475}
{"sequence-change": "A16U U65G", "self-cleavage": 0.997}
{"sequence-change": "G73A G76C", "self-cleavage": 0.516}
{"sequence-change": "C26G G67U", "self-cleavage": 0.665}
{"sequence-change": "G29U C66U", "self-cleavage": 0.147}
{"sequence-change": "A51U G67U", "self-cleavage": 0.816}
{"sequence-change": "C18A U46A", "self-cleavage": 0.0923}
{"sequence-change": "G6C A70C", "self-cleavage": 0.133}
{"sequence-change": "C36G U79G", "self-cleavage": 0.0437}
{"sequence-change": "A16U G53U", "self-cleavage": 0.985}
{"sequence-change": "U23A A42U", "self-cleavage": 0.57}
{"sequence-change": "C14A A78U", "self-cleavage": 0.0791}
{"sequence-change": "C62A U65C", "self-cleavage": 0.969}
{"sequence-change": "U37C G76C", "self-cleavage": 1.19}
{"sequence-change": "C7U A51C", "self-cleavage": 0.643}
{"sequence-change": "G1A G52U", "self-cleavage": 0.162}
{"sequence-change": "G6U U79G", "self-cleavage": 0.185}
{"sequence-change": "G2A C30G", "self-cleavage": 0.0432}
{"sequence-change": "C49A A70C", "self-cleavage": 0.831}
{"sequence-change": "C33A G80A", "self-cleavage": 0.123}
{"sequence-change": "A8C U20A", "self-cleavage": 0.0615}
{"sequence-change": "C41A C61U", "self-cleavage": 0.76}
{"sequence-change": "G50U C85U", "self-cleavage": 1.02}
{"sequence-change": "U9G G40C", "self-cleavage": 0.437}
{"sequence-change": "C66A G80C", "self-cleavage": 0.0845}
{"sequence-change": "C61U A78U", "self-cleavage": 0.326}
{"sequence-change": "G39A G73A", "self-cleavage": 0.0801}
{"sequence-change": "C48G G54A", "self-cleavage": 0.372}
{"sequence-change": "U20C C84G", "self-cleavage": 0.0978}
{"sequence-change": "G34A U65A", "self-cleavage": 0.0692}
{"sequence-change": "C22U A42C", "self-cleavage": 0.122}
{"sequence-change": "G31C G82C", "self-cleavage": 0.134}
{"sequence-change": "C7U C58A", "self-cleavage": 0.88}
{"sequence-change": "C13G C24G", "self-cleavage": 0}
{"sequence-change": "A42U G55A", "self-cleavage": 0.604}
{"sequence-change": "G2C G52U", "self-cleavage": 0.032}
{"sequence-change": "G2A G53A", "self-cleavage": 0.168}
{"sequence-change": "C3G C21U", "self-cleavage": 0.0326}
